- protocol.notes: NCI Yeast Anticancer Drug Screen. Data for the sgs1 mgt1 strain (AID 161);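 note: 0% = growth of cultures given vehicle only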
- condition.description: S. cerevisiae sgs1 mgt1 strain, at 5.0 µM (retest, dose inferred, filed as 0.5)
Compounds without any hit were thinned out: in the full panel of roughly 79,000, 15% have a hit. The source made the active and inactive calls. Cut-off read from the data, not from the text of the source: active = growth inhibition above about 70%; inactive = the rest.
Thanks in advance; please answer with one of these: class 1 = active, class 0 = inactive

Q) # fetch the recorded call for "O=C(Cc1csc2[n+]1C(=O)/C(=C/c1ccc(Cl)cc1)S2)Nc1ccccc1" here
A) class 0

Q) # fetch the recorded call for "[N-]=N[N+]#I1OC(C(F)(F)F)(C(F)(F)F)c2ccccc21" here
A) class 1

Q) # fetch the recorded call for "O=C([O][Sn]([O]C(=O)c1ccccc1)([c]1ccccc1)[c]1ccccc1)c1ccccc1" here
A) class 0

Q) # fetch the recorded call for "CC(C)(C)c1nc2c(o1)C(=O)c1ccccc1C2=O" here
A) class 0

Q) # fetch the recorded call for "CC1=C(SCCO)C(=O)c2ccccc2C1=O" here
A) class 0

Q) # fetch the recorded call for "CCN(CC)[P+](c1ccccc1O)(N(CC)CC)N(CC)CC" here
A) class 0

Q) # fetch the recorded call for "CCCCCCCCCCCC1=C(O)C(=O)C=C(O)C1=O" here
A) class 0

Q) # fetch the recorded call for "Cc1ccc(NC(=O)/C(Cl)=C(\Cl)C(=O)O)cc1C" here
A) class 0

Q) # fetch the recorded call for CN1CCc2ccccc2C1Cc1ccccc1NC(=O)c1sc2ccccc2c1Cl (stereo unspecified) here
A) class 0

Q) # fetch the recorded call for "O=C(NC(Nc1ccc(F)c(Cl)c1)(C(F)(F)F)C(F)(F)F)C(C(F)(F)F)C(F)(F)F" here
A) class 0

Q) # fetch the recorded call for "CN(Cc1cnc2nc(N)nc(N)c2n1)c1ccc(C(=O)N[C@@H](CCC(=O)O)C(=O)O)cc1" here
A) class 0

Q) # fetch the recorded call for "CCCCOC(=O)N[C@H]1CCc2cc(OC)c(OC)c(OC)c2-c2ccc(SC)c(=O)cc21" here
A) class 0

Q) # fetch the recorded call for "O=C1C(Nc2ccccc2)=C(Oc2ccccc2)C(=O)c2ccccc21" here
A) class 0

Q) # fetch the recorded call for "[O-][n+]1c2ccc(O)cc2nc2ccc(Cl)cc21" here
A) class 0

Q) # fetch the recorded call for "CCOc1ccc2c(c1)c(CC(=O)O)cn2C" here
A) class 0

Q) # fetch the recorded call for "CCCS(=O)(=O)Nc1ccc(Nc2c3ccccc3nc3ccccc23)c(OC)c1" here
A) class 0

Q) # fetch the recorded call for "NNc1c(F)c(F)cc(F)c1F" here
A) class 0

Q) # fetch the recorded call for "CC(C)/C(Cl)=N\OC(=O)Nc1ccccc1F" here
A) class 0

Q) # fetch the recorded call for "OC1CSCCCSCCSCCCSC1" here
A) class 0

Q) # fetch the recorded call for "O=CNc1ccc2c(c1)C(=O)c1ccccc1-2" here
A) class 0

Q) # fetch the recorded call for "CC(C)/C(Cl)=N\OC(=O)Nc1cccc(Cl)c1" here
A) class 0

Q) # fetch the recorded call for "CC1=C(C)Cc2c(O)ccc(O)c2C1" here
A) class 0

Q) # fetch the recorded call for "CCCCCCCCCCC(=O)Cl" here
A) class 0

Q) # fetch the recorded call for "COC(=O)c1ccc(NCC2=CC(=O)C=CC2=O)cc1O" here
A) class 0

Q) # fetch the recorded call for "S=C(Nc1ccc(Cl)c(Cl)c1)SCc1ccc2c(c1)OCO2" here
A) class 1

Q) # fetch the recorded call for "S=C(N/N=C/c1ccccn1)Nc1ccc(Cl)cc1" here
A) class 0

Q) # fetch the recorded call for "CN(C)C[C@H]1CC[C@@H](CN(C)C)C1=O" here
A) class 0

Q) # fetch the recorded call for "Cc1nc(-c2ccccc2)c(-c2ccccc2)s1" here
A) class 0

Q) # fetch the recorded call for "CC(=O)Nc1ccc2c(c1)C(=Nc1ccc(C(=O)O)cc1)c1ccccc1-2" here
A) class 0

Q) # fetch the recorded call for "COCCOC(=O)CCn1cc(F)c(=O)[nH]c1=O" here
A) class 0

Q) # fetch the recorded call for "Oc1ccc2ccccc2c1C(c1ccc(Cl)cc1)c1c(O)ccc2ccccc12" here
A) class 0

Q) # fetch the recorded call for "N#C/C(=C\c1cccc(OCc2ccccc2)c1)c1ccc([N+](=O)[O-])cc1" here
A) class 0

Q) # fetch the recorded call for "COc1ccc2sc3cccc(NCCN(C)C)c3c(=O)c2c1" here
A) class 0

Q) # fetch the recorded call for O=C(OCCN1CCCCCC1)C(c1ccsc1)C1CCCCC1 (stereo unspecified) here
A) class 0

Q) # fetch the recorded call for "CC(=O)Nc1ccc(/C=C(\C#N)c2ccc(C)cc2)cc1" here
A) class 0

Q) # fetch the recorded call for CC(=O)OC1CCC2(C)C(=CCC3C4CCC5(OC6CC(C)CN(C(C)=O)C6C5C)C(C)=C4C(=O)C32)C1 (stereo unspecified) here
A) class 0

Q) # fetch the recorded call for "COc1cc(C(=O)/C=C/c2ccccc2O)ccc1O" here
A) class 0

Q) # fetch the recorded call for "CNC(=O)OCc1c(COC(=O)NC)c(-c2ccc(Cl)c(Cl)c2)n2c1CCC2" here
A) class 0

Q) # fetch the recorded call for CCC(C)COC(=O)c1ccc(N=Cc2ccc(C=Nc3ccc(C(=O)OCC(C)CC)cc3)cc2)cc1 (stereo unspecified) here
A) class 1

Q) # fetch the recorded call for "CCN(CC)C(=S)N/N=C(/C)c1cccc(/C(C)=N\NC(=S)N(CC)CC)n1" here
A) class 0

Q) # fetch the recorded call for "Oc1c(Br)cc(Br)cc1C1CCCCC1" here
A) class 0

Q) # fetch the recorded call for "C[C@H](CCC(=O)NN)[C@H]1CC[C@H]2[C@@H]3CC[C@@H]4C[C@H](O)CC[C@]4(C)[C@H]3CC[C@]12C" here
A) class 0

Q) # fetch the recorded call for "CN(C)c1ccc(C(C#N)=C(C#N)C#N)cc1" here
A) class 0

Q) # fetch the recorded call for CCCCCCCCCCCCCCCCCCN(C)CC(COP(=O)([O-])OCC[N+](C)(C)C)OC (stereo unspecified) here
A) class 1

Q) # fetch the recorded call for "O=C(c1cc(Br)ccc1O)c1cc(Br)ccc1O" here
A) class 0

Q) # fetch the recorded call for CN1c2ccc(Cl)cc2C(=O)NC1c1ccc([N+](=O)[O-])s1 (stereo unspecified) here
A) class 0
